System: B16F0 melanoma tumour
Test: Biodistribution in B16 melanoma bearing mice
Type: in vivo, C57BL/6J mice
Conditions: B16 tumour, C57BL/6J mice, 6 h
Property label: tumour standardized uptake value (SUVt)

Compound	Assay system	Value
O=C(c1cncc(I)c1)N1CCN(Cc2ccccc2)CC1 [[^123I]20]	B16F0 melanoma tumour	1.7

A: CCCN(CCC)CCCCNC(=O)c1cncc(I)c1 [[^123I]17]
B: CCN(CC)CCNC(=O)c1ccc(I)nc1 [[^123I]14]
C: CCN(CC)CCNC(=O)c1cncc(I)c1 [[^123I]11]
Rank order required: tumour standardized uptake value (SUVt), descending. I'd appreciate it if you listed the labels in the requested order. C, A, B
(C: 12, A: 2.2, B: 1.0)
